Measured on: AGTR1 (Homo sapiens, UniProt P30556)
Construct: host or cells: Pathunter CHO-K1 AGTR1 β-arrestin cell line (CHO-K1)
Sequence (P30556 whole entry): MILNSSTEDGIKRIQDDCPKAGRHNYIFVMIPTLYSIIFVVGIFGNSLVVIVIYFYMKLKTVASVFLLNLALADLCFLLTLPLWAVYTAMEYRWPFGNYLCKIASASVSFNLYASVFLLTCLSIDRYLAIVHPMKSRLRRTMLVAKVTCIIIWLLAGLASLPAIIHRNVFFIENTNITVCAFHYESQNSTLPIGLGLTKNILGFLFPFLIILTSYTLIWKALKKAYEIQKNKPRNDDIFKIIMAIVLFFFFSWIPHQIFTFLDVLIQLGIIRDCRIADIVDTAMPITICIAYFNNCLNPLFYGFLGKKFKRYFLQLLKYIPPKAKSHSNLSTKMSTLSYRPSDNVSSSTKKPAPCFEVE
Test description: DiscoveRx β-arrestin2 recruitment assay (enzyme complementation, Pathunter CHO-K1 AGTR1 β-arrestin cell line)
Format: cell-based
Study conditions: DiscoveRx β-arrestin2 recruitment
Quantity kind: EC50 (nM)
Numbers only; they are read as nM.

Prompt: Please report the recorded EC50 for CCCCC1=NC2(CCCC2)C(=O)N1Cc1ccc(-c2cc(N3CCC(C)C3)ccc2-c2nn[nH]n2)cc1 (stereo not shown) .
Completion: 112

Prompt: Name the recorded EC50 for CCOc1nc2cccc(C(=O)O)c2n1Cc1ccc(-c2cc(-c3cc(N(C)C)ccn3)ccc2-c2noc(=O)[nH]2)cc1 .
Completion: 25.5

Prompt: Fill blank: measured EC50 of the compound CCCCOC(=O)NS(=O)(=O)c1sc(-c2ccccc2C)cc1-c1ccc(Cn2c(CC)nc3c(C)cc(C)nc32)cc1 is ____.
Completion: 9.3

Prompt: Look up EC50 for this compound: CCc1nc2c(C)cc(C)nc2n1Cc1ncc(-c2cc(-c3cccc(C)c3)ccc2C(=O)O)cn1
Completion: 122

Prompt: Would you mind telling me what EC50 value was observed for CCc1nc2c(C)cc(C)nc2n1Cc1ccc(-c2cc(-c3ccsn3)ccc2-c2nn[nH]n2)cc1 ?
Completion: 16.6

Prompt: Could you share which EC50 value was measured for CCc1nc2c(C)cc(C)nc2n1Cc1ccc(-c2cc(-c3ccc(CO)cc3)ccc2C(=O)O)cc1 ?
Completion: 66.2

Prompt: Look up EC50 for this compound: CCCCC1=NC2(CCCC2)C(=O)N1Cc1ccc(-c2cc(-c3cccc(C)n3)ccc2-c2nn[nH]n2)cc1
Completion: 13.4
